test.summary: Acute Toxicity
condition.set: mouse, in vivo; male mice, oral single dose, observed nine days
Procedure: Food and water were delivered ad lib. The drug to be tested was prepared as a water suspension using one drop of "Tween 80" per 10 ml. and administered orally as a single dose (10 ml./kg.). The control group received the vehicle only (10 ml./kg.). The lethal dose (LD50) which is the dose of drug required to kill 50 percent of the animals tested, was determined by the Litchfield and Wilcoxon method.
value.type: LD50 at 216 h (mg/kg)
# output: bare number, implied unit mg/kg

**Q:** Given the molecule O=C(O)C(Cl)c1ccc(C2CCCCC2)c(Cl)c1 (centres unmarked) [Compound 539A] , what is its reported LD50 at 216 h?
**A:** 430

====

Test system: polyarthritis (adjuvant)
test.summary: Polyarthritis in rats (adjuvant)
Format: in vivo
condition.set: 100 mg./kg./day P.O
value.type: Polyarthritis % av. inhibition, noninjected hind-paw (%)
Lab book: enter the figure in %, no units written.

Here is how some compounds turned out for Polyarthritis % av. inhibition, noninjected hind-paw.
**Q:** Given the compound N=C1NC(=O)C(c2ccc(C3CCCCC3)c(Cl)c2)S1 (centres unmarked) , what is its reported Polyarthritis % av. inhibition, noninjected hind-paw?
**A:** 44.7

**Q:** Would you kindly share the measured Polyarthritis % av. inhibition, noninjected hind-paw for O=C(O)C(SSC(C(=O)O)c1ccc(C2CCCCC2)c(Cl)c1)c1ccc(C2CCCCC2)c(Cl)c1 (centres unmarked) [Compound 531A] ?
**A:** 44.7

**Q:** Requested field: Polyarthritis % av. inhibition, noninjected hind-paw. Item: O=C1NC(=O)C(c2ccc(C3CCCCC3)c(Cl)c2)S1 (centres unmarked)
**A:** 17.3

Continuing:
**Q:** Which Polyarthritis % av. inhibition, noninjected hind-paw value is on record for O=C(O)C(S)c1ccc(C2CCCCC2)c(Cl)c1 (centres unmarked) [Compound 528A] ?
**A:** 35.6

**Q:** Item O=C(O)C(Cl)c1ccc(C2CCCCC2)c(Cl)c1 (centres unmarked) [Compound 539A] has what recorded Polyarthritis % av. inhibition, noninjected hind-paw?
**A:** 51.2
